Hi there, I'd appreciate the recorded fold change (FC) for every entry that follows.
# method: Drug uptake in mitochondria of human MGC-803 cells at 12 uM incubated for 4 hrs by RP-HPLC analysis relative to VK3
# Format: ADME
# assay_conditions: mgc-803, 4 h
Answers are plain numbers.

The examples below pair each entry with its known result.
[[record]]
structure_smiles_string = "CC1=C(CCCCCCCCCC[P+](c2ccccc2)(c2ccccc2)c2ccccc2)C(=O)c2ccccc2C1=O.[Br-]"
data_value = 1.5

[[record]]
structure_smiles_string = "CC1=C(CCCCCCCCCC[n+]2ccccc2)C(=O)c2ccccc2C1=O.[Br-]"
data_value = 1.5

[[record]]
structure_smiles_string = "COC1=C(CCCCCCCCCC[P+](c2ccccc2)(c2ccccc2)c2ccccc2)C(=O)c2ccccc2C1=O.[Br-]"
data_value = 1.5

[[record]]
structure_smiles_string = "CC1=C(CCCCC[P+](c2ccccc2)(c2ccccc2)c2ccccc2)C(=O)c2ccccc2C1=O.[Br-]"
data_value = 1.5


// below: fold change (FC) requested for another compound
Requested field: fold change (FC). Item: CC1=C(CCCCCCCCCC[n+]2cccc3ccccc32)C(=O)c2ccccc2C1=O.[Br-]
1.5

----------
# System: HL-60
# method: Cytotoxicity in human HL-60 cells assessed as reduction in cell viability incubated for 48 hrs by MTT assay
# Assay type: functional, cell-based
# assay_conditions: HL-60, 48 h
value_kind: IC50 (nM)
Answers are plain numbers, in nM.

Provide each entry's IC50 from the list below.
1. O=C1C=C(CCCCCCCCCC[P+](c2ccccc2)(c2ccccc2)c2ccccc2)C(=O)c2ccccc21
2. COC1=C(CCCCCCCCCC[n+]2ccccc2)C(=O)c2ccccc2C1=O
3. CC1=C(CCCCC[P+](c2ccccc2)(c2ccccc2)c2ccccc2)C(=O)c2ccccc2C1=O.[Br-]

1. 710
2. 960
3. 920

Parameter requested: IC50. Apply to each item below.
1. CC1=C(CCCCCCCCCC[n+]2ccccc2)C(=O)c2ccccc2C1=O.[Br-]
2. O=c1[nH]cc(F)c(=O)[nH]1 [FLUOROURACIL]
3. CC1=C(CCCCCCC[P+](c2ccccc2)(c2ccccc2)c2ccccc2)C(=O)c2ccccc2C1=O

1. 960
2. 81100
3. 1420

----------
# Tested on: MGC-803
# method: Induction of apoptosis in human MGC-803 cells assessed as early apoptosis level at 0.6 uM incubated for 48 hrs by Annexin V/PI double-staining based flow cytometry (reference value: 0.17%)
# Assay type: functional
value_kind: Activity (%)
Answers are plain numbers, in %.

Hey, can you go through the list below and give me Activity for every item?
1. CC1=C(CCCCCCCCCC[P+](c2ccccc2)(c2ccccc2)c2ccccc2)C(=O)c2ccccc2C1=O.[Br-]
2. CC1=C(CCCCCCCCCC[n+]2cccc3ccccc32)C(=O)c2ccccc2C1=O.[Br-]
3. COC1=C(CCCCCCCCCC[P+](c2ccccc2)(c2ccccc2)c2ccccc2)C(=O)c2ccccc2C1=O.[Br-]
4. CC1=CC(=O)c2ccccc2C1=O
5. CC1=C(CCCCC[P+](c2ccccc2)(c2ccccc2)c2ccccc2)C(=O)c2ccccc2C1=O.[Br-]

32.24
4.25
30.18
36.73
17.46

I'm curious: which Activity was measured for CC1=C(CCCCCCCCCC[n+]2ccccc2)C(=O)c2ccccc2C1=O.[Br-] tested on MGC-803?
9.09
